Overview of recorded pEC50 for various substances
tgt: hGcgR (Homo sapiens)
Sequence (P47871 26-477): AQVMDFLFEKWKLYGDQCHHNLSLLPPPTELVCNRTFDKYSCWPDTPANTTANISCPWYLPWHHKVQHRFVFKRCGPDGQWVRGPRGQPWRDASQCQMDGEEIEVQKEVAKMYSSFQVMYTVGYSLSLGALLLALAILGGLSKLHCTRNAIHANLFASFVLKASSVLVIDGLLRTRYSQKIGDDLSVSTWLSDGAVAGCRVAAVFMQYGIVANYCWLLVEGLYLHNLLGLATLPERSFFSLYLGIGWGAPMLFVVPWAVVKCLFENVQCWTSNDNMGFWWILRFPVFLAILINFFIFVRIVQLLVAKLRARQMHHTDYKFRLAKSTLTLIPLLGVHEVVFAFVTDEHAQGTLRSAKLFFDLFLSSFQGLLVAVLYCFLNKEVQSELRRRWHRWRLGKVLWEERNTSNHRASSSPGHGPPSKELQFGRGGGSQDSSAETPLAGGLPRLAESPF
protocol-notes: Functional cAMP activation in the presence of 0.1% casein (no HSA);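 further: intracellular cAMP rise after 30 min at 37 °C, read by HTRF against a cAMP standard curve, scaled from buffer only (0%) to maximal control ligand response (100%)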
Format: cell-based
measurement-context: in the presence of 0.1% casein (no HSA); geometric mean; read-out: Relative cAMP EC50, hGcgR
Starred links: 1 amine or outer side, 2 acyl side, 3 side chain; linkers in the order of their positions; H or OH if unused. Non-standard residues stand in square brackets, D forms with d. Groups on a side chain read outwards from the residue. *: point of attachment. C18 diacid = O=C(O)CCCCCCCCCCCCCCCCC(=O)*; αMePhe(2-F) = C[C@](N)(Cc1ccccc1F)C(=O)O; γGlu = O=C(O)[C@H](CCC(=O)[*:2])N[*:1]; αMe4Pal = C[C@](N)(Cc1ccncc1)C(=O)O; αMeY = C[C@](N)(Cc1ccc(O)cc1)C(=O)O; 4Pal = N[C@@H](Cc1ccncc1)C(=O)O; αMeL = CC(C)C[C@](C)(N)C(=O)O; αMeS = C[C@](N)(CO)C(=O)O; Orn = NCCC[C@H](N)C(=O)O; AEEA = NCCOCCOCC(=O)O; Aib = CC(C)(N)C(=O)O
In simple prose, pEC50 is minus the logarithm base ten of a concentration in moles per litre.

Some solved entries appear below for comparison.
{"substance": "H-Y[Aib]QGT[αMePhe(2-F)]TSD[4Pal][αMeS]I[αMeL]LD[Orn]K([γGlu-γGlu-C18 diacid])AQ[αMe4Pal]EFI[dE][αMeY]LIEGGPSSGEPPPSGE-NH2 [Example 1151]", "pEC50": 8.88}
{"substance": "H-Y[Aib]QGTFTSDFS[Orn][αMeL]LDKK([γGlu-AEEA-γGlu-C18 diacid])AQ[Aib]AFIEYLLE[Aib]GPSSGAPPPSG[4Pal]-NH2 [Example 277]", "pEC50": 7.97}

Name the reported pEC50 value associated with the substance H-Y[Aib]QGTFTSD[4Pal]SR[αMeL]LDKK([AEEA-γGlu-C18 diacid])AQ[Aib]AFIEYLIE[Aib]SPSSGAPPPSGS-NH2 [Example 807] 7.91

----------
Overview of recorded EC50 for various substances
tgt: hGLP-1R (Homo sapiens)
Sequence (P43220 24-463): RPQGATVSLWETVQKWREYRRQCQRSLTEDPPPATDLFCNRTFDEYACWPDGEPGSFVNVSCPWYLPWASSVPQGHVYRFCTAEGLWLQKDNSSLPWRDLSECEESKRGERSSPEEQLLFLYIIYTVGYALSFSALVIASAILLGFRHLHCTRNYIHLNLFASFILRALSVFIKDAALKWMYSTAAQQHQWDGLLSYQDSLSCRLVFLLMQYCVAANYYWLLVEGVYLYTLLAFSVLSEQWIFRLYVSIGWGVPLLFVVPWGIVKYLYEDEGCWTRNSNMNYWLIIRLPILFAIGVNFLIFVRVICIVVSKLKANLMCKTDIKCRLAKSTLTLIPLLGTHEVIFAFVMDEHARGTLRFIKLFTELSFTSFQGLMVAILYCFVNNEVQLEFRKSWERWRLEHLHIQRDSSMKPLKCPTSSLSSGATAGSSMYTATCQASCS
protocol-notes: Functional cAMP activity in the presence of 1% HSA
Assay type: cell-based
measurement-context: read-out: cAMP Rel EC50, hGLP-1R
Starred links: 1 amine or outer side, 2 acyl side, 3 side chain; linkers in the order of their positions; H or OH if unused. Non-standard residues stand in square brackets, D forms with d. Groups on a side chain read outwards from the residue. No end group written: not given here. *: point of attachment. C20 diacid = O=C(O)CCCCCCCCCCCCCCCCCCC(=O)*; C18 diacid = O=C(O)CCCCCCCCCCCCCCCCC(=O)*; αMePhe(2-F) = C[C@](N)(Cc1ccccc1F)C(=O)O; γGlu = O=C(O)[C@H](CCC(=O)[*:2])N[*:1]; αMe4Pal = C[C@](N)(Cc1ccncc1)C(=O)O; αMeY = C[C@](N)(Cc1ccc(O)cc1)C(=O)O; 4Pal = N[C@@H](Cc1ccncc1)C(=O)O; αMeL = CC(C)C[C@](C)(N)C(=O)O; αMeS = C[C@](N)(CO)C(=O)O; Orn = NCCC[C@H](N)C(=O)O; AEEA = NCCOCCOCC(=O)O; Aib = CC(C)(N)C(=O)O
Quick note: give the figure in µM, leave out the unit.

{"substance": "Y[Aib]QGTFTSDFSK[αMeL]LDKK([AEEA-γGlu-C20 diacid])AQ[Aib]AFIQYLLAGGPSSGEPPPSEG-NH2 [Example 27]", "recorded-endpoint": "EC50", "unit-tag": "µM", "assay-result": 0.464}

Request body: readout EC50, system hGLP-1R (Homo sapiens), query H-Y[Aib]QGT[αMePhe(2-F)]TSD[4Pal][αMeS]I[αMeL]LD[Orn]K([AEEA-γGlu-C18 diacid])AQ[αMe4Pal]EFI[dE][αMeY]LVEGGPSSGEPPPESE-NH2 [Example 1157] . Return the value. 0.0575

Request body: readout EC50, system hGLP-1R (Homo sapiens), query H-Y[Aib]QGTFTSD[4Pal]SQ[αMeL]LDKK([AEEA-γGlu-C18 diacid])AQ[αMe4Pal]AFIEYLIE[Aib]GPSSGAPPPSSS-NH2 [Example 848] . Return the value. 0.313
